Tested on: H929 cells
Test: Cell viability assay (H929 10 FBS)
Type: cell-based
Conditions: Homo sapiens, NCI-H929, 24 hours, read-out: H929_10FBS IC50
As shown below, each of these compounds has a reported IC50 value.
reported_property: IC50

>  <compound>
CO[C@@H]1/C=C/C[C@H](C)[C@@H](CC(=O)N(C)C)C(=O)NS(=O)(=O)c2ccc3c(c2)N(C[C@@H]2CC[C@H]21)C[C@@]1(CCCc2cc(Cl)ccc21)CO3 [Example 91]

>  <data_value>
> 1000 nM

$$$$
>  <compound>
C[C@H]1CN(C(=O)O[C@H]2/C=C/COC(C)(C)C(=O)NS(=O)(=O)c3ccc4c(c3)N(C[C@@H]3CC[C@H]32)C[C@@]2(CCCc3cc(Cl)ccc32)CO4)CCN1 [Example 176]

>  <data_value>
< 500 nM

$$$$
>  <compound>
CN(C)C(=O)O[C@H]1/C=C/COC(C)(C)C(=O)NS(=O)(=O)c2ccc3c(c2)N(C[C@@H]2CC[C@H]21)C[C@]1(CO3)OCCc2cc(Cl)ccc21 [Example 250]

>  <data_value>
< 500 nM

$$$$
